Assay Metric: melting point

[Q] # query: melting point of entry CCOC(=O)C(C#N)=Cc1c(Cl)n(Cc2ccccc2)c2ccccc12
[A] 130 to 131 °C

[Q] Which measured melting point value corresponds to CN(C)CCCCCCOc1ccc(C(=O)/C=C/c2ccccc2)cc1 ?
[A] 43 to 46 °C

[Q] Reported melting point for COc1ccc2c(C(=O)O)cn(C(C)C)c2c1 : what is it?
[A] 162 to 163 °C

[Q] What measured melting point goes with CCCCCCc1cc2c(cc1C(=O)Oc1ccc(C(=O)O)cn1)CCCCC2(C)C ?
[A] 119 to 120 °C

###

Assay Metric: melting point

[Q] Quick one: melting point of COc1ccc(C(=O)CN2CCNC2=O)cc1OC ?
[A] 167 °C

[Q] What value of measured melting point is listed for CC(Nc1nc2ccc(Cl)cc2cc1C(=O)O)C(=O)Nc1ccc2ccccc2c1 (stereo not given) ?
[A] 230 to 243 °C

[Q] Fill in: melting point of COC(=O)NNCc1ccc(Cl)cc1Cl is ___
[A] 82 to 83 °C

[Q] Tell me the measured melting point of CN1CCN(C2CC3(C)C(CCC4C3CCC3(C)C(O)C(N5CCCCC5)CC43)CC2O)CC1 (stereo not given) , please.
[A] 230 to 234 °C

[Q] Which melting point is listed for O=C(O)COCCc1cc2cc(Cl)ccc2n1S(=O)(=O)c1ccccc1 ?
[A] 135 to 137 °C

[Q] I am curious: what melting point value has been reported for CC(C)(C)c1ccc(CCCCC(=O)CC2CCCCC2)cc1NC(=O)CC1c2ccccc2Oc2ccccc21 ?
[A] 126 to 127 °C

[Q] So what's the measured melting point for this one? CCCNC(=S)NS(=O)(=O)c1cc2c(cc1OC)OCC(NC(=O)c1cc(Cl)ccc1OC)C2 (stereo not given)
[A] 182 °C

[Q] Quick check: melting point of BrCC1(c2ccc3ccccc3c2)OCCO1 ?
[A] 64 °C

[Q] Which melting point value is on record for O=C1NC(=O)C(c2ccc(Oc3ccccc3)cc2)C(=O)N1 ?
[A] > 240 °C

[Q] What melting point value was documented for this compound, Cc1c(C)c2c(c(C)c1O)SC(c1ccccc1O)O2 (stereo not given) ?
[A] 175 to 176 °C

[Q] Looking for the measured melting point of O=S1(=O)c2ccccc2N(c2ccc(-c3nc4ccccc4n3-c3ccccc3)cc2)c2ccccc21 , can you help?
[A] 286 to 288 °C

[Q] I would be grateful if you could share the reported melting point for OC(c1cccc2nc3n(c12)CCCN3c1ccc(Cl)cc1Cl)C1CC1 (stereo not given) .
[A] 208 to 209 °C

[Q] Name the recorded melting point for c1ccc(C(c2ccc3[nH]nnc3c2)n2ccnc2)cc1 (stereo not given) .
[A] 179 °C

[Q] Please look up its melting point: NC(=O)C1CN(Cc2ccccc2)CC1O (stereo not given)
[A] 128 °C

[Q] Fill blank: measured melting point of the compound Cc1cn(NCCCc2ccncc2F)c2ccc(OC(=O)NN3CCc4ccccc4C3)cc12 is ____.
[A] 157 to 160 °C

The reported measurements were obtained from a melting point compilation (Tetko et al.; mined from patent text by program, amines drawn as free bases though some values may be those of a salt).
